TARGET OR TEST SYSTEM: SMARCA4 (Homo sapiens)
Construct: SMARCA2 and SMARCA4 protein degradation in MV4-11 cells; endogenous in cells; host or cells: MV4-11
Sequence (P51532 whole entry): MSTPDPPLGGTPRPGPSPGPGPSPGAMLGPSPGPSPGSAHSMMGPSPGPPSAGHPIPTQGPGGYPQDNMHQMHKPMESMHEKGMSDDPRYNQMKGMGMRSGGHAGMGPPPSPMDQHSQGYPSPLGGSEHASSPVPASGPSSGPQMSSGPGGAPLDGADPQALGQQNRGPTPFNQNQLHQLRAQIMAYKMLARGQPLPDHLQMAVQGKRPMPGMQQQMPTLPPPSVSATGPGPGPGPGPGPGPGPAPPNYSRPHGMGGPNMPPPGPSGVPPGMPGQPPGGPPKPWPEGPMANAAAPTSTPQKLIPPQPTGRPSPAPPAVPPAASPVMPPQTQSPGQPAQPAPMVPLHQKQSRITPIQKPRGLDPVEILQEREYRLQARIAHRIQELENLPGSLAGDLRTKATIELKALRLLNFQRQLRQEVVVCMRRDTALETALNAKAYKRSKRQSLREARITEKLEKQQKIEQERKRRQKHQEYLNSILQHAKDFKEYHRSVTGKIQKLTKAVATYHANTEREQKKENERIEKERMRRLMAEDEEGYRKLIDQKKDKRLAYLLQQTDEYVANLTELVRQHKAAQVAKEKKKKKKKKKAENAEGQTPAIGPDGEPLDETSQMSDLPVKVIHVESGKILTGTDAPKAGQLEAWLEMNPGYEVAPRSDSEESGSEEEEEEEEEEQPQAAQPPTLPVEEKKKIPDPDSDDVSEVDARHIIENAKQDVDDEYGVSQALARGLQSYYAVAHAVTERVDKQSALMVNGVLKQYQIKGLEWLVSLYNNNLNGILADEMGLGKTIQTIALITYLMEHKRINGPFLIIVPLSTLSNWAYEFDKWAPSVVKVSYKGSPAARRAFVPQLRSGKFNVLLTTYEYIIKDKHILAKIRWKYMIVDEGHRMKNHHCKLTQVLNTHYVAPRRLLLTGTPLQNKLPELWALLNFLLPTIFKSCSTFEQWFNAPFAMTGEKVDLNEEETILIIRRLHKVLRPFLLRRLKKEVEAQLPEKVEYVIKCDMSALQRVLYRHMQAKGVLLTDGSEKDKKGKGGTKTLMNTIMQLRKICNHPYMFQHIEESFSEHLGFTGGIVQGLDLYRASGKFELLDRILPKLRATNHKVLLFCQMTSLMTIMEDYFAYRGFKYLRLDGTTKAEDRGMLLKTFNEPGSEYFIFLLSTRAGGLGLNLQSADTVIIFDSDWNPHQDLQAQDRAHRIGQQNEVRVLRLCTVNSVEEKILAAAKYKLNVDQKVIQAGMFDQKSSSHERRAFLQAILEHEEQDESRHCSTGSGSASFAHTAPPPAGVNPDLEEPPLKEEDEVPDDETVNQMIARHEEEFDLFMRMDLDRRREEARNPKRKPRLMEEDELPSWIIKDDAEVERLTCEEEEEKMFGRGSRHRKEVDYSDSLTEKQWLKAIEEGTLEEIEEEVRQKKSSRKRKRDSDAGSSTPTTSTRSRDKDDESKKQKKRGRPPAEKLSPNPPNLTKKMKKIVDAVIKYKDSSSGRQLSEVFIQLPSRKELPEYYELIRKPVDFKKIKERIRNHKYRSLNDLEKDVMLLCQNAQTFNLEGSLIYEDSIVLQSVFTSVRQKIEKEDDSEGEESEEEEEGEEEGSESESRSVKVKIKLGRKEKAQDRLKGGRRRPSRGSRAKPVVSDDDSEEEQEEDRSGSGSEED
ASSAY METHOD TEXT: SMARCA4 Western blot MV4-11 degradation
Type: cell-based
EXPERIMENTAL CONTEXT: MV4-11 cells, 24 h, read-out: SMARCA4 WB MV411 degradation 24 h: Average external-Abs DC50
Protocol: Cells were seeded into 6-well plates (MV4-11: 4×10^6 cells/well/1 ml) and 1 ml of 2× compound solution was added into the well to make the final concentration and the plates were mixed well and incubated for 24 hours (No cytotoxicity was observed). The cell were collected with media and spun at 3000 rpm for 5 minutes. […] The membrane was washed three times with TBST, 5 minutes each and lastly the LiCOR was read. […]
QUANTITY KIND: DC50

{"columns": ["MOLECULE", "DC50"],
 "data": [
  ["Cc1ncsc1-c1ccc(CNC(=O)[C@@H]2C[C@@H](O)CN2C(=O)[C@@H](NC(=O)CCN2CCC[C@H](Cn3cc(-c4cc(-c5ccccc5O)nnc4N)cn3)C2)C(C)(C)C)cc1 [I-478]", "> 1000 nM"],
  ["Cc1ncsc1-c1ccc(CNC(=O)[C@@H]2C[C@@H](O)CN2C(=O)[C@@H](NC(=O)[C@@H]2CC=C(c3cnc(N4C5CCC4CN(c4cc(-c6ccccc6O)nnc4N)C5)nc3)CC2)C(C)(C)C)cc1 [I-406]", "< 100 nM"],
  ["Cc1ncsc1-c1ccc(CNC(=O)[C@@H]2C[C@@H](O)CN2C(=O)[C@@H](NC(=O)CCCN2CCC(c3cnc(N4C5CCC4CN(c4cc(-c6ccccc6O)nnc4N)C5)nc3)CC2)C(C)(C)C)cc1 [I-382]", "> 1000 nM"],
  ["Cn1c(=O)n(C2CCC(=O)NC2=O)c2ccc(C3CCC(N4CCC(c5cnc(N6C7CCC6CN(c6cc(-c8ccccc8O)nnc6N)C7)nc5)CC4)CC3)cc21 (centres unmarked) [I-290]", "< 100 nM"]
]}

// below: DC50 requested for another molecule
QUERY: Hello, I am looking for reported DC50 with SMARCA4 (Homo sapiens) for Cc1ncsc1-c1ccc(CNC(=O)[C@@H]2C[C@@H](O)CN2C(=O)[C@@H](NC(=O)C2CC3(C2)CC(N2CCC(n4cc(-c5cc(-c6ccccc6O)nnc5N)cn4)CC2)C3)C(C)(C)C)cc1 (some centres unmarked) [I-329] . Could you help?
RESULT: < 100 nM

----------
Property: Dmax; scope: individual molecules
TARGET OR TEST SYSTEM: SMARCA2 (Homo sapiens, UniProt P51531)
Sequence (P51531 whole entry): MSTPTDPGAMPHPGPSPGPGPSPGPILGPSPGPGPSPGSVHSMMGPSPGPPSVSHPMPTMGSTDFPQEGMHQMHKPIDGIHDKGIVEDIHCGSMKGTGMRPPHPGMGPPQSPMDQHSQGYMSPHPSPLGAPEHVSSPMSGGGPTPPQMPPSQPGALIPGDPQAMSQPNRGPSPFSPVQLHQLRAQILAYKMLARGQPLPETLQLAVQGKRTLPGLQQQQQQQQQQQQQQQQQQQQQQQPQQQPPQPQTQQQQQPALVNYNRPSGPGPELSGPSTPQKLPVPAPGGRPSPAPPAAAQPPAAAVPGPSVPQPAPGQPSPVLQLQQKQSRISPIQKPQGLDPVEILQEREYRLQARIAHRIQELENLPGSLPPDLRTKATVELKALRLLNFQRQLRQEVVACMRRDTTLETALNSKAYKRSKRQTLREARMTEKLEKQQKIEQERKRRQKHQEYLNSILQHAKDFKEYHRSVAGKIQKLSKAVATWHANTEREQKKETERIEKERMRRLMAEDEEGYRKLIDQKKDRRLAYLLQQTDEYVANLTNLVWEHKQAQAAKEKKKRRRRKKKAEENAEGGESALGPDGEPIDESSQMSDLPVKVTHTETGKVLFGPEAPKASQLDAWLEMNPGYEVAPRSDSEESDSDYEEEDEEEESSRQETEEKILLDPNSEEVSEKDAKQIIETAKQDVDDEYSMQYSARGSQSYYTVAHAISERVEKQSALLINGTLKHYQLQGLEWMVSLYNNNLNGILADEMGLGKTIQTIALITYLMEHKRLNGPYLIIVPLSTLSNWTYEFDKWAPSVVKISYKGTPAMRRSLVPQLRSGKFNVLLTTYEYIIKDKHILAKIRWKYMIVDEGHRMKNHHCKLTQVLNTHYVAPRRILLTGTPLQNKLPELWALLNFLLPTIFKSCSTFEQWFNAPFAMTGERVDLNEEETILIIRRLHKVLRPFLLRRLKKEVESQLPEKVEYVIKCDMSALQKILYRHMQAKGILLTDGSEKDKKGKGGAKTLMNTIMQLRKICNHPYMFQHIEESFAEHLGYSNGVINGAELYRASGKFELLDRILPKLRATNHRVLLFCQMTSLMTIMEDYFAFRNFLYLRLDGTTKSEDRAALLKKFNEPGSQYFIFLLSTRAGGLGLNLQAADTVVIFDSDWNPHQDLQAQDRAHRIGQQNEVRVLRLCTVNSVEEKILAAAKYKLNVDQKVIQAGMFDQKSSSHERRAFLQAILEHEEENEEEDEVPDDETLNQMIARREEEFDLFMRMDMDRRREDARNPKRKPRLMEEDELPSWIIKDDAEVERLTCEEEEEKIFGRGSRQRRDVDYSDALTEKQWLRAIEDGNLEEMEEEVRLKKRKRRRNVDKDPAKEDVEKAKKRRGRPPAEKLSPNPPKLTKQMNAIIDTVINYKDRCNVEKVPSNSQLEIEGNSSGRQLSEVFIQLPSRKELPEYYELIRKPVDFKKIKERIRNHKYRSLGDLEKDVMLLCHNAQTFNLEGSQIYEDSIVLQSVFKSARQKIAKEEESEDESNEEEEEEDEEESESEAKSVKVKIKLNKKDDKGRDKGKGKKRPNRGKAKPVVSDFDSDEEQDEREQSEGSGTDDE
ASSAY METHOD TEXT: MSD SMARCA2 degradation in NCI-H1299 cell line (24 h)
Assay type: cell-based
Design: HC: NCI-H1299 cells treated with DMSO; host or cells: NCI-H1299
EXPERIMENTAL CONTEXT: NCI-H1299, NCI-H1299 cells

{"columns": ["MOLECULE", "TARGET OR TEST SYSTEM", "QUANTITY KIND", "MEASURED"],
 "data": [
  ["Cn1c(=O)n(C2CCC(=O)NC2=O)c2ccc(CCCCCCCCCNC(=O)c3cccc(C#Cc4cc(NC(=O)Nc5ccnc(Cl)c5)ccn4)c3)cc21 (centres unmarked) [I-301]", "SMARCA2 (Homo sapiens, UniProt P51531)", "Dmax", "< 50%"],
  ["COc1cc(C(=O)NCCCCCCCCCNCc2ccc(N3CCN(c4cc(-c5ccccc5O)nnc4N)CC3)cc2)ccc1NC(=O)[C@@H]1N[C@@H](CC(C)(C)C)[C@](C#N)(c2ccc(Cl)cc2F)[C@H]1c1cccc(Cl)c1F [I-235]", "SMARCA2 (Homo sapiens, UniProt P51531)", "Dmax", "< 50%"],
  ["Cn1c(=O)n(C2CCC(=O)NC2=O)c2cccc(CCCCOc3cccc(CN4CCN(c5cc(-c6ccccc6O)nnc5N)CC4)c3)c21 (centres unmarked) [I-96]", "SMARCA2 (Homo sapiens, UniProt P51531)", "Dmax", "50 to 70%"],
  ["Cn1c(=O)n(C2CCC(=O)NC2=O)c2ccc(C#CCOCCOCCN3CCN(Cc4ccc(-c5cc(-c6ccccc6O)nnc5N)cc4)CC3)cc21 (centres unmarked) [I-137]", "SMARCA2 (Homo sapiens, UniProt P51531)", "Dmax", "< 50%"]
]}

Now look at this one.
QUERY: Entry Cn1c(=O)n(C2CCC(=O)NC2=O)c2ccc(CCCCCCCN3CCC(Cn4cc(-c5cc(-c6ccccc6O)nnc5N)cn4)CC3)cc21 (centres unmarked) [I-146] has what Dmax?
RESULT: 70 to 90%

----------
TARGET OR TEST SYSTEM: SMARCA4 (Homo sapiens)
Construct: SMARCA2 and SMARCA4 protein degradation in MV4-11 cells; endogenous in cells; host or cells: MV4-11
ASSAY METHOD TEXT: SMARCA4 Western blot MV4-11 degradation
Assay type: cell-based
EXPERIMENTAL CONTEXT: MV4-11, MV4-11 cells, 24 h, read-out: SMARCA4 WB MV411 degradation 24 h: Average Dmax %
QUANTITY KIND: Dmax

{"columns": ["COMPOUND", "QUANTITY KIND", "MEASURED"],
 "data": [
  ["Cc1ncsc1-c1ccc(CNC(=O)[C@@H]2C[C@@H](O)CN2C(=O)[C@@H](NC(=O)[C@H]2CC[C@H](CCN3CCC(n4cc(-c5cc(-c6ccccc6O)nnc5N)cn4)CC3)CC2)C(C)(C)C)cc1 [I-399]", "Dmax", "50 to 70%"],
  ["Cc1ncsc1-c1ccc(CNC(=O)[C@@H]2C[C@@H](O)CN2C(=O)[C@@H](NC(=O)C2CCC(CCCCCN3CCC(Cn4cc(-c5cc(-c6ccccc6O)nnc5N)cn4)CC3)CC2)C(C)(C)C)cc1 (some centres unmarked) [I-504]", "Dmax", "> 90%"]
]}

QUERY: What measured Dmax goes with Cc1ncsc1-c1ccc(CNC(=O)[C@@H]2C[C@@H](O)CN2C(=O)[C@@H](NC(=O)C[C@H]2CC[C@H](c3nccc(N4C5CCC4CN(c4cc(-c6ccccc6O)nnc4N)C5)n3)CC2)C(C)(C)C)cc1 [I-364] ?
RESULT: > 90%

QUERY: Please look up its Dmax: Cc1ncsc1-c1ccc(CNC(=O)[C@@H]2C[C@@H](N)CN2C(=O)[C@@H](NC(=O)CCCNCc2ccc(C#Cc3cc(NC(=O)Nc4cc(F)ncc4CO)ccn3)cc2)C(C)(C)C)cc1 [I-492]
RESULT: < 50%

QUERY: Consider the compound shown here: Cc1ncsc1-c1ccc(CNC(=O)[C@@H]2C[C@@H](O)CN2C(=O)[C@@H](NC(=O)CN2CCN(C3CCC(c4cnc(N5C6CCC5CN(c5cc(-c7ccccc7O)nnc5N)C6)nc4)CC3)CC2)C(C)(C)C)cc1 (some centres unmarked) [I-354] What is its recorded Dmax?
RESULT: > 90%

----------
# Dmax per entry
TARGET OR TEST SYSTEM: UniProtKB P51531
ASSAY METHOD TEXT: MSD SMARCA2 degradation in A549 cell line
Assay type: cell-based
EXPERIMENTAL CONTEXT: A549, A549 cells, 24 h

{"columns": ["COMPOUND", "MEASURED"],
 "data": [
  ["Cn1c(=O)n(C2CCC(=O)NC2=O)c2ccc(CCCCCCCCCNCc3ccc(C#Cc4cc(NC(=O)Nc5cc(F)ncc5CO)ccn4)cc3)cc21 (stereo not shown)", "< 50%"]
]}

QUERY: API: value(readout=Dmax, system=UniProtKB P51531) for record Cc1ncsc1-c1ccc(CNC(=O)[C@@H]2C[C@@H](O)CN2C(=O)[C@@H](NC(=O)[C@H]2CC[C@@H](CN3CCC(c4cnc(N5C6CCC5CN(c5cc(-c7ccccc7O)nnc5N)C6)nc4)CC3)CC2)C(C)(C)C)cc1
RESULT: > 90%

QUERY: What value of Dmax on UniProtKB P51531 does Nc1nnc(-c2ccccc2O)cc1-c1cnn(C2CCN([C@H]3CC[C@@H](CNc4ccc5c(c4)C(=O)N(C4CCC(=O)NC4=O)C5=O)CC3)CC2)c1 (stereo partly shown) have?
RESULT: > 90%

QUERY: Form: Entry = Cc1ncsc1-c1ccc(CNC(=O)[C@@H]2C[C@@H](O)CN2C(=O)[C@@H](NC(=O)CN2CCC(c3ccc(C#Cc4cc(NC(=O)Nc5cc(F)ncc5CO)ccn4)cc3)CC2)C(C)(C)C)cc1 | System = UniProtKB P51531 | Dmax = ____
RESULT: < 50%

QUERY: Lab note: need Dmax with UniProtKB P51531 for entry COc1ccccc1-c1cc(N2CC3CCC(C2)N3c2ncc(C3CCN(CCCNC(=O)COc4ccc5c(c4)CCCN5C(=O)CCl)CC3)cn2)c(N)nn1 , please look it up.
RESULT: < 50%

QUERY: Value wanted: Dmax (UniProtKB P51531) of entry Cc1ncsc1-c1ccc(CNC(=O)[C@@H]2C[C@@H](O)CN2C(=O)[C@@H](NC(=O)C23CCC(CN4CCC(n5cc(-c6cc(-c7ccccc7O)nnc6N)cn5)CC4)(CC2)CC3)C(C)(C)C)cc1
RESULT: > 90%

QUERY: Test system UniProtKB P51531; read-out Dmax; what value for Cc1ncsc1-c1ccc(CNC(=O)[C@@H]2C[C@@H](O)CN2C(=O)[C@@H](NC(=O)CN2CCN([C@H]3CC[C@@H](c4cnc(N5C6CCC5CN(c5cc(-c7ccccc7O)nnc5N)C6)nc4)CC3)CC2)C(C)(C)C)cc1 (single isomer, unassigned) ?
RESULT: > 90%

QUERY: Hi! What's the reported Dmax for Nc1nnc(-c2ccccc2O)cc1-c1cnn(C2CCN(C3CCC(Nc4cccc5c4C(=O)N(C4CCC(=O)NC4=O)C5=O)CC3)CC2)c1 (stereo not shown) on UniProtKB P51531?
RESULT: > 90%

QUERY: Dmax of Cc1ncsc1-c1ccc(CNC(=O)[C@@H]2C[C@@H](O)CN2C(=O)[C@@H](NC(=O)C[C@H]2C[C@@H](N3CCC(c4cnc(N5C6CCC5CN(c5cc(-c7ccccc7O)nnc5N)C6)nc4)CC3)C2)C(C)(C)C)cc1 on UniProtKB P51531?
RESULT: 70 to 90%

QUERY: Provide value of Dmax for this record tested with UniProtKB P51531: Cc1ncsc1-c1ccc(CNC(=O)[C@@H]2C[C@@H](O)CN2C(=O)[C@@H](NC(=O)[C@H]2CC[C@@H](N3CCC(n4cc(-c5cc(-c6ccccc6O)nnc5N)cn4)CC3)CC2)C(C)(C)C)cc1
RESULT: < 50%
